Sodium-dependent serotonin transporter (Rattus norvegicus, UniProt P31652) pKi, compiled from various sources.
Answers are plain numbers, as −log10 of the molar value.

// each listed compound needs a value for pKi
1. COc1ccc2[nH]cc(C3CCN(CCCCn4c(=O)c(-c5ccccc5C)c5n(c4=O)CCCC5)CC3)c2c1
2. Fc1ccc2[nH]cc([C@H]3CC[C@@H](NCc4ccccc4)CC3)c2c1
3. Fc1ccc(C(Oc2cccc3ccccc23)C2CCCNC2)cc1 (stereo not given)
4. Fc1ccc2[nH]cc([C@H]3CC[C@H](NCC4COc5ccccc5O4)CC3)c2c1 (stereo not given in full)
5. O=c1c(-c2ccccc2Cl)c2ccccn2c(=O)n1CCCCN1CCCC(c2c[nH]c3ccc(F)cc23)C1 (stereo not given)
6. c1ccc(CN[C@H]2CC[C@H](c3c[nH]c4ccccc43)CC2)cc1
7. CNCCC[C@@H](c1cccs1)c1cccc2[nH]ccc12

[A]
1. 6.91
2. 7.68
3. 7.67
4. 7.85
5. 6.59
6. 6.97
7. 6.57

Provide pKi values for the following items, in order.
1. Fc1ccc(OC(CC2CCNCC2)c2ccc(F)cc2)cc1 (stereo not given)
2. Fc1ccc2[nH]cc([C@H]3CC[C@@H](N4CCN(c5cccc6ncccc56)CC4)CC3)c2c1
3. O=C1COc2ccc(OC3CCN(CCOc4cccc5ncccc45)CC3)cc2N1

[A]
1. 7.17
2. 7.86
3. 7.50
